Taken from ChEMBL document CHEMBL2203279.

Assay: Drug excretion in po dosed Wistar rat feces up to 24 hrs
Assay type: ADME, organism-based
Conditions: faeces, read-out: Drug excretion
PROPERTY_LABEL: dose excreted at 24 h (%)
Response body: numeric value in %, unit text excluded.

Answer with reported dose excreted at 24 h of `CC1(C)CC[C@]2(C)CC[C@]3(C)C(=CC[C@@H]4[C@@]5(C)CC[C@@H](O)[C@](C)(C(=O)Oc6cccc7c6C(=O)c6c(OC(=O)[C@@]8(C)[C@H](O)CC[C@@]9(C)[C@H]8CC[C@]8(C)[C@@H]9CC=C9[C@@H]%10CC(C)(C)CC[C@]%10(C)CC[C@]98C)cc(C(=O)O)cc6C7=O)[C@@H]5CC[C@]43C)[C@@H]2C1` 3.1

----------
Assay: Drug excretion in po dosed Wistar rat urine up to 24 hrs
Format: ADME, organism-based
Conditions: read-out: Drug excretion
PROPERTY_LABEL: dose excreted at 24 h (%)
Answer with a number only, understood to be in %.

Please report dose excreted at 24 h for the following compound: `CC1(C)CC[C@]2(C)CC[C@]3(C)C(=CC[C@@H]4[C@@]5(C)CC[C@@H](O)[C@](C)(C(=O)Oc6cccc7c6C(=O)c6c(OC(=O)[C@@]8(C)[C@H](O)CC[C@@]9(C)[C@H]8CC[C@]8(C)[C@@H]9CC=C9[C@@H]%10CC(C)(C)CC[C@]%10(C)CC[C@]98C)cc(C(=O)O)cc6C7=O)[C@@H]5CC[C@]43C)[C@@H]2C1` 6.2
